ASSAYED_TARGET: RIPK2; further: test concentration or dose not given here
CONDITION_CONTEXT: ASO
These antisense oligonucleotides have a phosphorothioate backbone; sugars and methylation of C are not fully specified.
Lab note - cut at 0.5 for remaining target (mRNA or protein) (fraction of control): T if strictly below, F if not.

For orientation, consider the following solved cases.
TTTCCTATGTAGGAGTTCAT :: F
CGAACCAGAGCTGACTTCTT :: T
ATACTTCATAAAATCAAATT :: F
ATTGCATCTTAGACAAGTAA :: F
TCTATTAAACATTTTAAGAA :: F

# input I wonder whether CATGGTCCCGGGCGCTCAGG has remaining target (mRNA or protein) (fraction of control) below 0.5. Can you tell?
# output F

# input Just wondering, is remaining target (mRNA or protein) (fraction of control) of TATCCTTTTATGAAACACAT below 0.5?
# output F

# input Bench note: check whether AAATAACAGTCTTGAGCTTT shows remaining target (mRNA or protein) (fraction of control) below 0.5
# output F

# input Hello, is remaining target (mRNA or protein) (fraction of control) of the following sequence strictly smaller than 0.5? CCTCCCCGTTCATGGTCCCG
# output T
